experimental.system: 2α4:3β2 nAChR (Homo sapiens, UniProt P17787+P43681)
Construct: expressed in transfected cells; host or cells: Xenopus laevis oocytes injected with cRNA (α4:β2 ratio 1:4)
Sequence (P43681 29-627 limits assumed): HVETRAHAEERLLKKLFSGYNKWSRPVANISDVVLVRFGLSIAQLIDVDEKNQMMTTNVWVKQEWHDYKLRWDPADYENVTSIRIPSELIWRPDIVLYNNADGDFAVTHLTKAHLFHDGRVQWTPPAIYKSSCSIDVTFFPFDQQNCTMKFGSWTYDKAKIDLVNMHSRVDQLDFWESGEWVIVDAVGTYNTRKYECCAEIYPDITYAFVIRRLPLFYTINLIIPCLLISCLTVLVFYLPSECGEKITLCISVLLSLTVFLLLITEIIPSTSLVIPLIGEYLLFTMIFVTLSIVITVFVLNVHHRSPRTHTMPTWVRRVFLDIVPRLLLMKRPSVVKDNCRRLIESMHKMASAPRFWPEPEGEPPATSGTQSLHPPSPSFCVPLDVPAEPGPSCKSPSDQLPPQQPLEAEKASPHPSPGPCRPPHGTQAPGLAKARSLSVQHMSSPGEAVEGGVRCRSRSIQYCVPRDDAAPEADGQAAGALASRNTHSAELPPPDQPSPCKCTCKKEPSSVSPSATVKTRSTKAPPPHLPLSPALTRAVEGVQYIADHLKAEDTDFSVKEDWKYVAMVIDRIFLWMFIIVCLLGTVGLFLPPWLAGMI
Sequence (P17787 26-502): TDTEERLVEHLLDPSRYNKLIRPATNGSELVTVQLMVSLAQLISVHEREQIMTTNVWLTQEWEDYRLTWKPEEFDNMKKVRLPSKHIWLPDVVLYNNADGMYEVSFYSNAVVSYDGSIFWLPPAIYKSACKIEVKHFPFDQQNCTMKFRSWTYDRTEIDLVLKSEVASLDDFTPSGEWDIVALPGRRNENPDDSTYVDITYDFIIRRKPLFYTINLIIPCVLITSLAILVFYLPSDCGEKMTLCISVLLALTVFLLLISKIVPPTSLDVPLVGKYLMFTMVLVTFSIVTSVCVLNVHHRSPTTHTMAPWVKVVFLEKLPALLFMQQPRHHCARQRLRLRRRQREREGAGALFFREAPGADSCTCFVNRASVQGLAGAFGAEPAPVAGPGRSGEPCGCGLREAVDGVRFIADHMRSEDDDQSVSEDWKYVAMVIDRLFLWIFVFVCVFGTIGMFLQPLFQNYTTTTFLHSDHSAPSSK
assay.method.text: Two-electrode voltage-clamp electrophysiology in Xenopus oocytes, WT 2α4:3β2 receptor
Type: cell-based
condition.set: 2α4:3β2, ligand alone; Hill co-efficient of one
attribute.measured: EC50 (nM)

{"structure.as.smiles": "OCCCCC#Cc1cncc(OC[C@@H]2CCN2)c1", "numeric.result": 10}

====

experimental.system: 3α4:2β2 nAChR (Homo sapiens, UniProt P17787+P43681)
assay.method.text: Linear kinetic models (Model 1, Model 2) of 3α4:2β2 receptor activation
condition.set: read-out: K (binding equilibrium constant), Model-1; Model 1, 3α4:2β2
pKd: −log10 of the molar value.
pKd overview
attribute.measured: pKd

{"compound": "CCOc1cncc(/C=C/CCNC)c1 [TC-2559]", "attribute.measured": "pKd", "numeric.result": 6.08}
{"compound": "OCCCCC#Cc1cncc(OC[C@@H]2CCN2)c1 [Saz-A, Sazetidine-A]", "attribute.measured": "pKd", "numeric.result": 7.57}

All figures here come from paper PMC4995024.
